Test system: DU-4475
Test: Antiproliferative activity against human DU-4475 cells assessed as inhibition of cell growth incubated for 72 hrs by cell-titer glo assay
Format: functional, cell-based
Settings: DU-4475, 72 h
pIC50: −log10 of the molar value.
Experimental Endpoint: pIC50

molecule="CN1CCN(c2ccc(OC(F)(F)F)c(Nc3ncc4c(n3)-c3c(c(C(N)=O)nn3CCO)CC4)c2)CC1 [ONVANSERTIB]" experimental_endpoint=pIC50 measured=7.33

###

Molecular target: MAP kinase-interacting serine/threonine-protein kinase 2 (Homo sapiens, UniProt Q9HBH9)
Sequence (Q9HBH9 whole entry): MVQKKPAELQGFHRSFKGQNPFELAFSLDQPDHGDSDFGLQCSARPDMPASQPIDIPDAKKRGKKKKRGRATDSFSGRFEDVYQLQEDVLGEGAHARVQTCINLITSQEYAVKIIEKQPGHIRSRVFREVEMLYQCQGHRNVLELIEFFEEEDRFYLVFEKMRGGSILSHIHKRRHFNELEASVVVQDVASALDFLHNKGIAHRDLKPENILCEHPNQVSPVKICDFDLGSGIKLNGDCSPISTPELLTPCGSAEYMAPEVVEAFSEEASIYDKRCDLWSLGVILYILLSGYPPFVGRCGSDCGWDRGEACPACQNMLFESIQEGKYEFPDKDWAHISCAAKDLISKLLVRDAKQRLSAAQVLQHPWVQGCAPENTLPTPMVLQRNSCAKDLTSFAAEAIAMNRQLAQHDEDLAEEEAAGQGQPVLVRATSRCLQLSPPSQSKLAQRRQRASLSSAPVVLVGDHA
pIC50: −log10 of the molar value.
Experimental Endpoint: pIC50

compound="CN1CCN(c2ccc(OC(F)(F)F)c(Nc3ncc4c(n3)-c3c(c(C(N)=O)nn3CCO)CC4)c2)CC1 [ONVANSERTIB]" measured="< 5.00"

###

Assay: Antiproliferative activity against human GM03798 cells assessed as inhibition of cell growth incubated for 72 hrs by cell-titer glo assay
Type: functional, cell-based
Settings: GM03798, 72 h
pIC50: −log10 of the molar value.
Experimental Endpoint: pIC50

compound="CN1CCN(c2ccc(OC(F)(F)F)c(Nc3ncc4c(n3)-c3c(c(C(N)=O)nn3CCO)CC4)c2)CC1 [ONVANSERTIB]" experimental_endpoint=pIC50 measured=7.26

###

Molecular target: Mitogen-activated protein kinase 1 (Homo sapiens, UniProt P28482)
Sequence (P28482 whole entry): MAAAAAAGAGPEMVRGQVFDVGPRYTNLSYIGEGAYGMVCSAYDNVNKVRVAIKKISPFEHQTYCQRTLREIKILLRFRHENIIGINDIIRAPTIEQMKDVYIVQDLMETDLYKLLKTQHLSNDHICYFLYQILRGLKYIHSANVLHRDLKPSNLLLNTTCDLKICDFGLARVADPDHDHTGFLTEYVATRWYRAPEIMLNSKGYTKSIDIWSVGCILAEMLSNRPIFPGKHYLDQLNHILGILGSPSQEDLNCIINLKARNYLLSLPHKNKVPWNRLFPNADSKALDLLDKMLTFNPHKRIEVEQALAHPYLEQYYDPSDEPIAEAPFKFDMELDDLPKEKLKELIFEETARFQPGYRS
Assay: Inhibition of ERK2 (unknown origin) in presence of [gamma-33P]ATP
Experimental Endpoint: IC50

compound="CN1CCN(c2ccc(OC(F)(F)F)c(Nc3ncc4c(n3)-c3c(c(C(N)=O)nn3CCO)CC4)c2)CC1 [ONVANSERTIB]" target_of_assay="Mitogen-activated protein kinase 1 (Homo sapiens, UniProt P28482)" measured="> 10 µM"

###

System: SF-295
Experiment: Antiproliferative activity against human SF-295 cells assessed as inhibition of cell growth incubated for 72 hrs by cell-titer glo assay
Type: functional, cell-based
Settings: SF-295, 72 h
pIC50: −log10 of the molar value.
Experimental Endpoint: pIC50

molecule="CN1CCN(c2ccc(OC(F)(F)F)c(Nc3ncc4c(n3)-c3c(c(C(N)=O)nn3CCO)CC4)c2)CC1 [ONVANSERTIB]" experimental_endpoint=pIC50 measured=6.41

###

Assay: Cmax in Sprague-Dawley rat at 10 mg/kg, iv by LC-MS analysis
Format: ADME, organism-based
Conditions: in vivo
Experimental Endpoint: Cmax (µM)

molecule=CN1CCN(c2ccc(OC(F)(F)F)c(Nc3ncc4c(n3)-c3c(c(C(N)=O)nn3CCO)CC4)c2)CC1 experimental_endpoint=Cmax measured=6.8

###

System: HCT-15
Test: Antiproliferative activity against human HCT-15 cells assessed as inhibition of cell growth incubated for 72 hrs by cell-titer glo assay
Format: functional, cell-based
Conditions: HCT-15, 72 h
Experimental Endpoint: IC50

molecule=CN1CCN(c2ccc(OC(F)(F)F)c(Nc3ncc4c(n3)-c3c(c(C(N)=O)nn3CCO)CC4)c2)CC1 experimental_endpoint=IC50 measured="0.156 µM"

###

Assay: Clearance in Beagle dog at 5 mg/kg, iv by LC-MS analysis
Format: ADME, organism-based, Canis lupus familiaris
Conditions: in vivo
Experimental Endpoint: clearance (mL/min/kg)

molecule=CN1CCN(c2ccc(OC(F)(F)F)c(Nc3ncc4c(n3)-c3c(c(C(N)=O)nn3CCO)CC4)c2)CC1 measured=43.8

Each recorded value in this set is attributed to ChEMBL document CHEMBL5678806.
